Source of measurements: paper PMC2600596

- Target Under Test: hMOR (human mu opioid receptor) (Homo sapiens, UniProt P35372)
- Sequence (P35372 whole entry): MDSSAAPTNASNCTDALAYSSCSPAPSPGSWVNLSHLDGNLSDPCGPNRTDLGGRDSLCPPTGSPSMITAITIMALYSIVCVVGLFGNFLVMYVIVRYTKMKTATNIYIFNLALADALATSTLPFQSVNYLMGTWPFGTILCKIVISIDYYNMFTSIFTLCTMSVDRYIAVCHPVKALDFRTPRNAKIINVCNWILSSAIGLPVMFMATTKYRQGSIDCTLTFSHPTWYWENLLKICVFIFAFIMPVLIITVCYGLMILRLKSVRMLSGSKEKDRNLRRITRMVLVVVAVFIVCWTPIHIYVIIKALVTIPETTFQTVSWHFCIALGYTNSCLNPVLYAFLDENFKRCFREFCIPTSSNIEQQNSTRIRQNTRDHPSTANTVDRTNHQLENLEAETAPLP
- Format: binding

Compound | Hill Slope
COC(=O)/C=C/C(=O)N[C@@H]1CC[C@@]2(O)[C@H]3Cc4ccc(O)c5c4[C@@]2(CCN3CC2CC2)[C@H]1O5 [β-FNA, β-funaltrexamine] | −1.01
C[C@@H](NC(=O)[C@@H](N)Cc1ccc(O)cc1)C(=O)NCC(=O)N(C)[C@@H](Cc1ccccc1)C(=O)NCCO [DAMGO] | −0.85
Oc1ccc2c3c1O[C@H]1c4[nH]c5ccccc5c4C[C@@]4(O)[C@@H](C2)N(CC2CC2)CC[C@]314 [Naltrindole, naltrindole] | −0.99
Oc1ccc2c3c1O[C@H]1c4[nH]c5c(c4C[C@@]4(O)[C@@H](C2)N(CC2CC2)CC[C@]314)C[C@@]1(O)[C@H]2Cc3ccc(O)c4c3[C@@]1(CCN2CC1CC1)[C@H]5O4 [nor-BNI, nor-binaltorphimine] | −0.99
